Target: Na+,K+-ATPase (Canis lupus familiaris)
Construct: Na^+,K^+ -ATPase receptor purified according to Jorghensen
Experiment: inhibition of the activity of the purified Na+,K+-ATPase (hydrolysis of 32P-ATP)
Settings: purified enzyme
Record form. Attribute: pIC50. Fill in for each entry.
Notebook: values listed as pIC50 are -log10 of the concentration (mol/L).

Look at this compound and give its reported pIC50. C[C@]12CCC(=NOCCN)C[C@@H]1[C@@H](O)C[C@@H]1[C@@H]2CC[C@]2(C)[C@@H](O)CC[C@@H]12
5.80

And the next one, CN(C)CCCO[C@H]1CC[C@@]2(C)[C@H](C1)C(=O)C[C@@H]1[C@@H]2CC[C@]2(C)C(=O)CC[C@@H]12 ?
4.30

Quick one: C[C@]12CC[C@H](/C=N\OCCN)C[C@@H]1[C@@H](O)C[C@@H]1[C@@H]2CC[C@]2(C)[C@@H](O)CC[C@@H]12.O=C(O)C(=O)O [I-d, oxalate]
5.80

Please do the same for CN(C)CCO/N=C1/CC[C@@]2(C)[C@H](C1)C(=O)C[C@@H]1[C@@H]2CC[C@]2(C)C(=O)CC[C@@H]12 as well.
4.92

// query: C[C@]12CCC(=NOCCN)C[C@@H]1C(=O)C[C@@H]1[C@@H]2CC[C@]2(C)C(=O)CC[C@@H]12
6.52

Now try CN(C)CCO/N=C/C=C1\CC[C@@]2(C)[C@H](C1)[C@@H](O)C[C@@H]1[C@@H]2CC[C@]2(C)[C@@H](O)CC[C@@H]12 .
6.00

Another compound to check: CN(C)CCO/N=C\[C@H]1CC[C@@]2(C)[C@H](C1)[C@@H](O)C[C@@H]1[C@@H]2CC[C@]2(C)[C@@H](O)CC[C@@H]12
5.70

Note, next up: CN(C)CCO/N=C/C=C1\CC[C@@]2(C)[C@H](C1)C(=O)C[C@@H]1[C@@H]2CC[C@]2(C)C(=O)CC[C@@H]12
5.49
